Biological target: Torsin-1A-interacting protein 1 (Homo sapiens) (UniProt Q5JTV8)
Sequence (Q5JTV8 whole entry, looked up): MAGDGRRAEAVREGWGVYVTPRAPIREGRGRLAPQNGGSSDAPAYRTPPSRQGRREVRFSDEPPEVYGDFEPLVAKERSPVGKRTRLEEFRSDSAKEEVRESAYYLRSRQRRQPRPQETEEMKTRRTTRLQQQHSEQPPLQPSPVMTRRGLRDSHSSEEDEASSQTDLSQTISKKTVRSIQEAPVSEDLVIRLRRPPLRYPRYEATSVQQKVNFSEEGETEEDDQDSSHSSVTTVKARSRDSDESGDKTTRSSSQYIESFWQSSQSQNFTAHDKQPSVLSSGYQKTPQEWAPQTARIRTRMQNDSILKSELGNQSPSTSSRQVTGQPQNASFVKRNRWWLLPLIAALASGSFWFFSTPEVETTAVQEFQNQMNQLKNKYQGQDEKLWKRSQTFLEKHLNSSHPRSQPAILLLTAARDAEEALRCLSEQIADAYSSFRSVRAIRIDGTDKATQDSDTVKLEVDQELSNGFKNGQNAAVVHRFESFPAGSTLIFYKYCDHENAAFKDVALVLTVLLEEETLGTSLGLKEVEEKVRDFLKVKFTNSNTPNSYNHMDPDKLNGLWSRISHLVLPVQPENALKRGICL
Test: LAP1 binders from COS7 cell lysate, primary screen, small-molecule microarray, 635/667 nm fluorescence (AID 1116)
Details: COS7-hLAP1 lysate binding, 635 nm fluorescence, higher = more signal
Entries annotated with measured composite z-score
Reply briefly: the number, and no unit.

Entry under test: C=CCNC(=O)[C@@H]1[C@H]2C(=O)O[C@H](c3ccccc3)[C@H](c3ccccc3)N2[C@H](c2ccc(OCCO)cc2)[C@@]12C(=O)N(C(=O)OCCOC)c1ccccc12 . Its composite z-score was 1.58

Entry under test: O=C1OC[C@@H](c2ccccc2)n2cc(/C=C/c3ccccc3)cc21 . Its composite z-score was -0.948

###

Assay: PSAC antagonists in infected red cells, primary screen, cell-based, P. falciparum Indochina, OD700, 18 h (AID 1157)
Conditions: P. falciparum Indochina infected erythrocytes, osmotic lysis OD700, 18 h; higher = more signal, called active from +8 up or from −8 down
reported-property: z-score
Reply briefly: the number, and no unit.

Below are worked cases with known answers.
>>> recorded_number("CCCC=C(CCC)[C@@H](NC(=O)c1ccc(C(=O)OC)cc1)c1ccc(C(=O)OC)cc1")
0.618
>>> recorded_number("O=C1OCCC/C=C\\[C@H]2OC34C=CCN(Cc5ccccc5)C(=O)[C@H]3N(CCO)C(=O)[C@@H]4C12 (stereo not given in full)")
0.671
>>> recorded_number("CC[C@@H](O[Si](C#C[Si](C(C)C)(C(C)C)C(C)C)(C(C)C)C(C)C)c1cn([C@H](C)c2ccccc2)nn1")
0.582
>>> recorded_number("C=CCN1C(=O)[C@@]2(O[C@@H](CCO)[C@H]([Si](C)(C)c3ccc(OC)cc3)[C@H]2C)c2cc(N3CCCCC3=O)ccc21")
1.9
>>> recorded_number("CC(C)(C)OC(=O)CC[C@]1(C(N)=O)N=C(c2ccc(OCCCO)cc2)O[C@H]1c1ccccc1N=[N+]=[N-]")
2.48

Entry under test: COc1ccc(CCNC(=O)[C@@H]2c3ccccc3C(=O)N(C(C)C)[C@H]2c2ccc(CO)cc2)cc1 . Its z-score was 0.376

Entry under test: COCCOC(=O)N1C(=O)[C@@]2(c3cc(C#CCNC(N)=O)ccc31)[C@H](c1ccccc1OCCO)N1[C@H](c3ccccc3)[C@H](c3ccccc3)OC(=O)[C@H]1[C@@H]2C(=O)N1CCCCCCC1 . Its z-score was 0.238

Entry under test: O=C1NC(=O)C2C1C=CC(C(O)C1CCCCC1)N2Nc1ccccn1 (stereo not given) . Its z-score was 0.433

Entry under test: COCCOC(=O)N1C(=O)[C@@]2(c3cc(C#CCCO)ccc31)[C@H](C(=O)N1CCN(c3ncccn3)CC1)[C@H]1C(=O)O[C@H](c3ccccc3)[C@H](c3ccccc3)N1[C@@H]2c1ccc(OCCO)cc1 . Its z-score was 1.39

Entry under test: COC(=O)[C@H](Cc1ccccc1)N1CC(C)(OC)O[C@@H](Cc2ccccc2)[C@H]1/C=C/C1CC1 (stereo not given in full) . Its z-score was 0.281

Entry under test: C=C[C@@H](CO)NS(=O)(=O)c1ccc(Br)cc1 . Its z-score was -1.81

Entry under test: CC(C)c1ccc(NN2C(C(O)C3=C[C@H]4C[C@@H](C3)C4(C)C)C=CC3C(=O)N(c4ccccc4)C(=O)C32)cc1 (stereo not given in full) . Its z-score was 1.37

Entry under test: C[N+](C)(C)CCCC[C@@H]1NC(=O)[C@H]2C[C@@H](C(=O)NCCCCCN)[C@@H](c3ccc(O)cc3)N2C1=O . Its z-score was -0.0429

Entry under test: CC(C)(C)OC(=O)CC[C@@]1(C(=O)N2CCOCC2)N=C(c2ccc(OCCCO)cc2)O[C@@H]1c1ccccc1CN=[N+]=[N-] . Its z-score was 1.11

Entry under test: Cc1ccc(S[C@]2(C(=O)NC(C)C)CC(=O)N(Cc3ccccc3)[C@@H]2c2ccc(CO)cc2)cc1 . Its z-score was -0.581

###

Assay: HepG2 liver cancer cell viability effects, profiling panel, resazurin fluorescence, 24 h, PK04 Diversity Set (AID 1172); also: test concentration not given here
Conditions: higher = more signal
Entries annotated with measured z-score

Below are worked cases with known answers.
>>> result("C=CCNC(=O)[C@H]1[C@@H]2C(=O)O[C@@H](c3ccccc3)[C@@H](c3ccccc3)N2[C@@H](c2ccc(OCCO)cc2)[C@]12C(=O)N(C(=O)OCCOC)c1ccc(C#CCC(C(=O)OC)C(=O)OC)cc12")
-0.181
>>> result("COC(=O)[C@@]1(Cc2ccc(F)cc2)[C@H]2c3cc(C(=O)N4CCCC4)n(C[C@H](O)CO)c3C[C@H]2CN1C(=O)c1ccccc1")
-0.462
>>> result("COCCOC(=O)N1C(=O)[C@@]2(c3cc(C#CCCO)ccc31)[C@H](c1ccc(O)cc1)N1[C@H](c3ccccc3)[C@H](c3ccccc3)OC(=O)[C@H]1[C@@H]2C(=O)NC[C@H](O)c1ccccc1")
1.63

Entry under test: COC(=O)[C@@]1(Cc2ccc(F)cc2)[C@H]2c3cc(C(=O)N(C)C)n(Cc4ccsc4Br)c3C[C@H]2CN1C(=O)c1ccccc1 . Its z-score was -1.05

Entry under test: COCCOC(=O)N1C(=O)[C@@]2(c3cc(C#CCC(C(=O)OC)C(=O)OC)ccc31)[C@H](c1ccc(O)cc1)N1[C@H](c3ccccc3)[C@H](c3ccccc3)OC(=O)[C@H]1[C@@H]2C(=O)N1CCc2cc(OC)c(OC)cc2C1 . Its z-score was -0.347

Entry under test: COC(=O)[C@@]1(Cc2ccc(OC)cc2)[C@@H]2[C@@H](CC(=O)[C@H]2CC(=O)C(=O)N(C)C)CN1C(=O)c1ccccc1 . Its z-score was -0.54

###

Entries annotated with measured composite z-score
Biological target: Streptavidin (Streptomyces avidinii)
Assay: streptavidin binders on small-molecule microarray, primary screen, artefact control for SMM compound annotation, biophysical, 635/667 nm fluorescence (AID 1147);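 also: signal reflects streptavidin binding to arrayed compounds as a control protein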
Conditions: streptavidin binding, higher = more signal
Reply briefly: the number, and no unit.

Below are worked cases with known answers.
>>> recorded_number("CCCNC(=O)[C@@]1(Sc2ccc(C)cc2)CC(=O)N(Cc2cc(C(F)(F)F)cc(C(F)(F)F)c2)[C@@H]1c1ccc(CO)cc1")
-1.08
>>> recorded_number("CC(C)N1C(=O)[C@@]2(Cc3ccccc31)c1ccccc1C(=O)N(Cc1ccccc1C(F)(F)F)[C@H]2c1ccc(CO)cc1")
-0.0569
>>> recorded_number("O=C1C2C=CC(C(O)C(c3ccccc3)c3ccccc3)N(Nc3ccccc3F)C2C(=O)N1c1ccccc1 (stereo not drawn)")
1.58
>>> recorded_number("C=CCNC(=O)[C@@H]1[C@H]2C(=O)O[C@H](c3ccccc3)[C@H](c3ccccc3)N2[C@H](c2ccc(OCCO)cc2)[C@@]12C(=O)Nc1ccc(C#CC3=CCCCC3)cc12")
1.06
>>> recorded_number("Cc1cccc([C@H]2C[C@H]3C(Br)=C[C@@]2(CO)C(=O)[C@]32CO2)c1")
-0.376

Entry under test: C=CCNC(=O)[C@@H]1[C@H]2C(=O)O[C@H](c3ccccc3)[C@H](c3ccccc3)N2[C@H](c2ccc(O)cc2)[C@@]12C(=O)Nc1ccc(C#CC3=CCCCC3)cc12 . Its composite z-score was 1.72

Entry under test: COc1ccc(CCNC(=O)[C@@]2(c3ccc([N+](=O)[O-])cc3)CC(=O)N(C3CCCCC3)[C@@H]2c2ccc(CO)cc2I)cc1 . Its composite z-score was -0.0827

Entry under test: C=CCNC(=O)[C@H]1[C@@H]2C(=O)O[C@@H](c3ccccc3)[C@@H](c3ccccc3)N2[C@@H](c2ccc(OCCO)cc2)[C@]12C(=O)N(C(=O)OCCOC)c1ccc(C#CCNC(N)=O)cc12 . Its composite z-score was 0.286

###

Entries annotated with measured z-score
Test: A549 lung cancer cell viability effects, profiling panel, resazurin fluorescence, 24 h, PK04 Diversity Set (AID 1171); also: test concentration not given here
Settings: higher = more signal, called active from +8 up or from −8 down
Reply briefly: the number, and no unit.

Below are worked cases with known answers.
>>> recorded_number("CCCCC(=C=CC[C@H](O)c1cccc(OCCO)c1)C[C@H](O)c1cc(Cl)cc(Cl)c1O")
1.57
>>> recorded_number("CCCC1(C(=O)OC)C=C2C(=C(C(C)C)C(=O)C2C)CN1 (stereo not drawn)")
-0.898
>>> recorded_number("CC(C)[Si](C#Cc1ccccc1)(O[C@H](c1ccccc1)c1cn(Cc2ccccc2)nn1)C(C)C")
-0.486
>>> recorded_number("C=CC[C@]1(C(=O)NCCN2CCOCC2)N=C(c2ccc(OCCCO)cc2)O[C@H]1c1ccccc1")
1.63

Entry under test: [N-]=[N+]=Nc1ccccc1C[C@]1(C(=O)N2CCCCC2)N=C(c2ccc(OCCCO)cc2)O[C@H]1c1ccccc1 . Its z-score was -0.676

Entry under test: O=C(NC1CC1)[C@@H]1c2ccccc2C(=O)N(C2CCCCC2)[C@H]1c1ccc(CO)cc1 . Its z-score was 0.0989

Entry under test: C[C@]1(C(=O)O)c2ccccc2C(=O)N(Cc2cc(C(F)(F)F)cc(C(F)(F)F)c2)[C@H]1c1ccc(CO)cc1 . Its z-score was 0.449

Entry under test: CC(C)N1C(=O)[C@@]2(Cc3ccccc31)c1ccccc1C(=O)N(Cc1ccccc1)[C@H]2c1ccc(CO)cc1 . Its z-score was 0.247

FYI, the data here is from PubChem BioAssay.
